test system: A549; assay: Euclidean distance of Cell Painting phenotypic profile (signed KS, 77 features) to DMSO centroid (dimensionless distance); 5 or 10 uM (library dependent); higher = stronger phenotypic change vs DMSO (phenoactivity); settings: 48 h
Structures can show the parent of a compound that is named as a salt.

| molecule | Euclidean distance |
| --- | --- |
| Cc1ccc(F)c(NC(=O)Nc2ccc(-c3cccc4[nH]nc(N)c34)cc2)c1 | 2.53 |
| COc1ccc(C2CNC(=O)C2)cc1OC1CCCC1 (stereo not given) | 1.51 |
| CN(C)CCCN1c2ccccc2CCc2ccc(Cl)cc21 [Clomipramine HCl] | 0.845 |
| Cc1cc(N2CCOCC2)ccc1Nc1nc(NC2CCCCC2)c2[nH]cnc2n1 | 2.73 |
| CCOC(=O)n1ccn(C)c1=S | 1.11 |
| Nc1ccc(O)c(C(=O)O)c1 | 0.636 |
| Fc1ccc(C(c2ccc(F)cc2)N2CCN(C/C=C/c3ccccc3)CC2)cc1 [Flunarizine 2HCl] | 1.16 |
| CCC[C@H](NC(=O)/C(C#N)=C/c1cccc(Br)n1)c1ccccc1 [Degrasyn (WP1130)] | 4.08 |
| CNC(=O)c1cc(Oc2ccc(NC(=O)Nc3cc(C(C)(C)C)nn3-c3ccc4ncccc4c3)c(F)c2)ccn1 [DCC-2036 (Rebastinib)] | 3.75 |
| CO[C@H]1/C=C\C=C(/C)C(=O)NC2=CC(=O)C(NCCN(C)C)=C(C[C@@H](C)C[C@H](OC)[C@H](O)[C@@H](C)/C=C(\C)[C@@H]1OC(N)=O)C2=O | 2.89 |
| CC(C)(C)C#Cc1cc(N(C(=O)[C@H]2CC[C@H](C)CC2)[C@H]2CC[C@H](O)CC2)c(C(=O)O)s1 | 0.474 |
| Cc1c(OCC(F)(F)F)ccnc1C[S+]([O-])c1nc2ccccc2[nH]1 (stereo not given) | 2.3 |
| Cc1ccccc1N1CCN(CCc2nnc3n2CCCC3)CC1 [Dapiprazole Hydrochloride] | 0.715 |
| CN(C)CCC[C@@]1(c2ccc(F)cc2)OCc2cc(C#N)ccc21 [Escitalopram Oxalate] | 1.12 |
| CCCCCCCCCCCCC[N+](C)(C)Cc1ccccc1 [Benzalkonium chloride] | 2.29 |
| COc1ccc([C@@H]2Sc3ccccc3N(CCN(C)C)C(=O)[C@@H]2OC(C)=O)cc1 [Diltiazem HCl] | 1.04 |
| CCOC(=O)OC(C)OC1=C(C(=O)Nc2ccccn2)N(C)S(=O)(=O)c2ccccc21 (stereo not given) | 1.35 |
| COc1cc2c(cc1OC)[C@@H]1Cc3ccc(OC)c(OC)c3CN1CC2 | 0.769 |
| CCOC(=O)C(C)(C)Oc1ccc(Cl)cc1 [Clofibrate] | 0.429 |
| COc1cc(/C=C/C(=O)CC(=O)/C=C/c2ccc(O)c(OC)c2)ccc1O | 2.12 |
| CC(C(=O)O)c1ccc2c(c1)[nH]c1ccc(Cl)cc12 (stereo not given) | 0.684 |
| COc1cc(C[C@H]2C(=O)OC[C@@H]2Cc2ccc(OC)c(OC)c2)ccc1O [(-)-Arctigenin] | 1.48 |
| Nc1ccc(S(=O)(=O)Nc2ccnn2-c2ccccc2)cc1 | 0.571 |
| N#C/C(=C(/N)Sc1ccc(N)cc1)c1ccccc1C(F)(F)F | 1.46 |
| CC(C)(C)C(=O)Oc1ccc(S(=O)(=O)Nc2ccccc2C(=O)NCC(=O)O)cc1 [Sivelestat sodium tetrahydrate] | 0.568 |
| CC(C)[C@H](N)C(=O)OCCOCn1cnc2c(=O)nc(N)[nH]c21 [Valaciclovir HCl] | 1.31 |
| CC(=O)NC[C@H]1CN(c2ccc(N3CCOCC3)c(F)c2)C(=O)O1 | 1.27 |
| O=C(O)c1ccc(-n2nc(-c3ccccc3O)nc2-c2ccccc2O)cc1 | 2.01 |
| O=C1c2c(O)cccc2Cc2cccc(O)c21 | 0.754 |
| COc1ccc(-c2cc3c(C)nc(N)nc3n([C@H]3CC[C@H](OCCO)CC3)c2=O)cn1 | 3.33 |
| CC1(C)S[C@@H]2[C@H](NC(=O)Cc3ccccc3)C(=O)N2[C@H]1C(=O)O.CCN(CC)CCOC(=O)c1ccc(N)cc1 | 0.676 |
| COC(=O)CCC(=O)CN [Methyl Aminolevulinate Hydrochloride] | 0.774 |
| Clc1ccc(C(Cn2ccnc2)OCc2ccc(Sc3ccccc3)cc2)c(Cl)c1 (stereo not given) [Fenticonazole Nitrate] | 0.887 |
| COC1=C(OC)C(=O)C(CCCCCCCCCCO)=C(C)C1=O | 0.641 |
| C=CCc1ccc(O)c(-c2cc(CC=C)ccc2O)c1 | 0.915 |

Origin of values: the supplement of paper PMC10127200
